FYI, the data here is from PubChem BioAssay (NCI).

Test system: BT-549 breast
Experiment: NCI tumour cell line growth inhibition, 48 h
readout: TGI

molecule: Cc1cc2c(cc1Cl)SC(NS(=O)(=O)c1ccc(Cl)cc1)=NS2(=O)=O
result: > 100 µM
--
molecule: CC(=O)Nc1ccc(N2C(=O)/C(=C\c3cccc(Oc4ccccc4)c3)S(=O)(=O)C2c2ccccc2)cc1 (stereo unspecified)
result: > 100 µM
--
molecule: CCCCC1=NNC(=O)C1
result: > 100 µM
--
molecule: CC(O)CCC(=O)c1ccoc1 (stereo unspecified)
result: > 10000 µM

Fetch value of TGI on BT-549 breast for COc1cc(C2SCC(=O)N2c2ccccn2)cc(OC)c1OC (stereo unspecified) .
> 100 µM

Provide measured TGI on BT-549 breast for COC(=O)c1cc2c3c(ccc2[nH]1)N(C(=O)c1cc2cc(OC)c(OC)c(OC)c2[nH]1)CC3CCl (stereo unspecified) please.
> 100 µM

====

System: SN12C renal
Assay: NCI tumour cell line growth inhibition, 48 h
Reported TGI is given for each of the following compounds.

State its TGI for this compound: `Nc1ccc(Oc2ccc(C34CC5CC6C3CC3CC4C(C5)C6(c4ccc(Oc5ccc(N)cc5)cc4)C3)cc2)cc1`
> 100 µM

Could you please provide reported TGI for OC1[C@@H]2[C@@H](O)[C@H](O)[C@@H](O)N2C[C@@H]1O (stereo partly specified) ? Thanks!
> 100 µM

Tell me its TGI given `[Cl][Hg][c]1cc(Br)cc(Br)c1` as the entry.
3.56 µM

====

Listed here: items and their measured TGI.
Test system: NCI-H23 lung
Assay: NCI tumour cell line growth inhibition, 48 h

Consider the worked cases shown below.
molecule: c1nc(OCC2CCCCC2)c2[nH]cnc2n1
assay.system: NCI-H23 lung
TGI: > 100 µM
--
molecule: CC(C)=CCNc1ncnc2c1ncn2C1OC(CO)C(O)C1O (stereo not given)
assay.system: NCI-H23 lung
TGI: 125 µM
--
molecule: NC(=Nc1c([N+](=O)[O-])cnc2ccccc12)N1CCOCC1
assay.system: NCI-H23 lung
TGI: > 100 µM
--
molecule: O=C1/C(=C/c2ccc(Br)cc2)COc2ccc(O)c(O)c21
assay.system: NCI-H23 lung
TGI: 3.65 µM
--
molecule: CC1=C(C(=O)Nc2ccccc2)C(c2ccccc2)C(C(=O)Nc2ccccc2)=C(C)N1
assay.system: NCI-H23 lung
TGI: > 100 µM
--
molecule: O=C1NC(NNc2ccccc2)=N/C1=C\c1ccccc1O
assay.system: NCI-H23 lung
TGI: > 100 µM
--
molecule: O=C(O)CCC(=O)c1ccc[nH]1
assay.system: NCI-H23 lung
TGI: > 100 µM
--
molecule: C=COCCCOc1ccccc1
assay.system: NCI-H23 lung
TGI: > 100 µM

Note down TGI recorded for `Cc1cc(C)n2nc3nc(N)c(C#N)c(-c4ccccc4)c3c2n1`
> 100 µM

Give the reported value of TGI for this record: COC(=O)c1ccc(C(=O)NC(Cc2ccc(Oc3cc(CC(NC(=O)c4ccccc4C(=O)OC)C(=O)OC)ccc3OC)cc2)C(=O)OC)cc1 (stereo not given)
> 100 µM

====

Tested on: SW-620 colon
Assay: NCI tumour cell line growth inhibition, 48 h
readout: TGI

Example entries begin here.
molecule: Oc1c(C2=NNC(c3ccc(Cl)cc3Cl)C2)ccc2ccccc12 (stereo not given)
TGI: > 100 µM
--
molecule: O=Cc1cn(CCCCCCCCCCCCn2cc(C=O)c3ccccc32)c2ccccc12
TGI: > 100 µM
--
molecule: O=C(O)c1ccc(N=C(C(=Nc2ccc(C(=O)O)cc2)c2ccccc2)c2ccccc2)cc1
TGI: > 100 µM
--
molecule: CC(=O)Nc1ccc(C(=O)NN2C(=O)CSC2c2ccc([N+](=O)[O-])cc2)cc1 (stereo not given)
TGI: > 100 µM

Query molecule follows.
# return recorded TGI for input `CCCCCCCCCCCCCC1=NC(C)(C)CN1C(C)C`
2.92 µM
